The values you see were collected from paper PMC9482650.

Quick reference: pKd of the listed items.
MEASURED TARGET: FRMPD4, Q14CM0
Sequence (Q14CM0 67-160): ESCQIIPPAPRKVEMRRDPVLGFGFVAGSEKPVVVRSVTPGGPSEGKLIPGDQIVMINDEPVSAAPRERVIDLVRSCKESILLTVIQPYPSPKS
PROCEDURE SUMMARY: holdup assay
Set-up: key: below the threshold = too weak to quantify, mostly under pKd 3.1 to 4
CONDITIONS: plain residues with an end cap or a label only (N-terminal biotin on a linker: ado-ado)

>  <BINDER>
QSPANIYYKV [EFNB1, P52799]

>  <pKd>
3.8

$$$$
>  <BINDER>
NLSIEKETKL [ASNSD1, Q9NWL6]

>  <pKd>
4.28

$$$$
